The reported measurements were obtained from patent US20240317721A1.

# TARGET UNDER TEST: KRasG12C (M1-K169, biotinylated on the N-terminus) (Homo sapiens (Human), UniProt P01116, G12C)
# PROTOCOL TEXT: Covalent competition assay: scintillation proximity assay (SPA) quantifying covalent modification of KRASG12C
# CONDITION CONTEXT: competition with radiolabeled covalent probe (Compound B/Compound A), 2 hours incubation, 10 nM KRasG12C
READOUT KIND: pIC50
One number for each entry, as −log10 of the molar value.

Consider the worked cases shown below.
C=CC(=O)N1CC2(CC(n3nc(N4CCC(CN5CCOCC5)CC4(C)CC)c(-c4c(Cl)c(C)cc5[nH]ncc45)c3C)C2)C1 (single isomer, unassigned) [Example 222a]: 5.96
C=CC(=O)N1CC2(CC(n3nc(N4CC[C@@H](CN5CC6(CCCN6C(C)=O)C5)CC4(C)C)c(-c4c(Cl)c(Cl)cc5[nH]ncc45)c3C)C2)C1 (single isomer, unassigned) [Example 285b]: 8.15
C=CC(=O)N1CC2(CC(n3nc(N4CCN(C5CCOC5)CC45CCC5)c(-c4c(Cl)c(C)cc5[nH]ncc45)c3C)C2)C1 (single isomer, unassigned) [Example 132c]: 7.62
C=CC(=O)N1CC2(CC(n3nc(N4CCN(CC(C)(C)O)CC45CCC5)c(-c4c(Cl)c(F)cc5[nH]ncc45)c3C)C2)C1 (single isomer, unassigned) [Example 167b]: 7.51
C=CC(=O)N1CC2(CC(n3nc(N4CC[C@@H](CN5CCN6C(=O)N(C)CC6C5)CC4(C)C)c(-c4c(Cl)c(Cl)cc5[nH]ncc45)c3C)C2)C1 (single isomer, unassigned) [Example 264a]: 6.45

For every item in the list below, what is its measured pIC50?
1. C=CC(=O)N1CC2(CC(n3nc(N4CC[C@@H](CN5CCN(C6COC6)CC5)CC4(C)C)c(-c4c(Cl)c(C)cc5[nH]ncc45)c3C)C2)C1 (single isomer, unassigned) [Example 246b]
2. C=CC(=O)N1CC2(CC(n3nc(N4CCN(C5(C)COC5)CC45CCC5)c(-c4c(Cl)c(C)cc5[nH]ncc45)c3C)C2)C1 (single isomer, unassigned) [Example 191b]

1. 7.82
2. 7.85
